target: T1, Recombinant human IL-1beta (rhIL-1b) (human, UniProt P01584 117-269); experiment: Biacore, Medium Resolution; IL-1β in solution; medium-resolution Biacore
T1 construct: R&D Systems Cat. No. 201-LB/CF; also called IL-1β; human IL-1β

binder	koff [s⁻¹]
9.2.1 (antibody, human IgG4, V domains shown, lambda) VH: QVQLVESGGGVVQPGRSLRLSCAASGFTFNNYGMHWVRQAPGKGLECVAVIWYDGGNKYYADSVKGRFAISRDNSKNTLYLQMNSLRAEDTAVYYCTAVTTLYYYYGMDVWGQGTTVTVS VL: QSALTQPASVSGSPGQSITISCTGTSSDVGGYNYVSWYQQHPGKAPKLMIYEVSNRPSGVSNRFSGSKSGNTASLTISGLQAEDEADYYCSSYTSSSILVFGGGTKLTVL	0.00035
8.18.1 (antibody, human IgG4, V domains shown, lambda; also called mAb 8.18.1) VH: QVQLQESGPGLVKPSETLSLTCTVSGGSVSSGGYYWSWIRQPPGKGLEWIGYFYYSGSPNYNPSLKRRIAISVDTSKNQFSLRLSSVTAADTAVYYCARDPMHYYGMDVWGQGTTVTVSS VL: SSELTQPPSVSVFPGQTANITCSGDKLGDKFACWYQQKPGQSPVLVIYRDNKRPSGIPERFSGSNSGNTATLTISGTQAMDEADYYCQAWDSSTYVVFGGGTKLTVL	0.00022
9.19.1 (antibody, human IgG4, V domains shown, lambda; also called mAb 9.19.1) VH: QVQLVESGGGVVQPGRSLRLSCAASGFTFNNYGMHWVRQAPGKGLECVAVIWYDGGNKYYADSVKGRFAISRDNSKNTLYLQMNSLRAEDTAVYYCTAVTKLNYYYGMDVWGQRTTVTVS VL: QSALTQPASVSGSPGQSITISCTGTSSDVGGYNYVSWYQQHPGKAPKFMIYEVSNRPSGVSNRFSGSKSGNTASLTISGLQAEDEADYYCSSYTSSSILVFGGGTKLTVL	4e-05
5.36.1 (antibody, human IgG4, V domains shown, kappa) VH: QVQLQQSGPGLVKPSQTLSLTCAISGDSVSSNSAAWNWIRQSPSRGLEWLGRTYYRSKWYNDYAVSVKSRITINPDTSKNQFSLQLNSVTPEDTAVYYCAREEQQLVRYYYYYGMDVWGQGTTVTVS VL: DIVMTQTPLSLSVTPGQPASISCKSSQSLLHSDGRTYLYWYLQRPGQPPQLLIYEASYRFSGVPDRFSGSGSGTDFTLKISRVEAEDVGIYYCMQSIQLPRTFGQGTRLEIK	0.00058
